Reference source for all entries: ChEMBL document CHEMBL3988442

# target-desc: Tyrosyl-tRNA synthetase, putative (Trypanosoma cruzi (strain CL Brener))
# assay-notes: Trypanosoma cruzi tyrosyl tRNA synthetase (TcYRS) SOP
# Assay type: functional
# Parameters: scale not given: direction of the effect not stated beside the values
# condition-notes: 30 µM
Please mark Fulfilled if the recorded Percent Effect is equal to or greater than 10%, and Not fulfilled if it falls below.

INSERT INTO measurements (molecule, class_label) VALUES
  ('CSc1ncccc1C(=O)N1CCC(c2nc3c(C)cccc3[nH]2)CC1', 'Fulfilled'),
  ('CC(NC(=O)NCc1cccc(N2CCCC2=O)c1)c1ccccc1 (centres undefined)', 'Fulfilled'),
  ('Cc1cc(F)ccc1S(=O)(=O)NCc1cccc(C(=O)N2CCCC2)c1', 'Not fulfilled'),
  ('Cc1nc(C(=O)N2CCCC(n3cncn3)C2)cs1 (centres undefined)', 'Not fulfilled'),
  ('C[S+]([O-])c1nncn1CC(=O)c1ccc2c(c1)CCO2 (centres undefined)', 'Fulfilled'),
  ('COC(=O)c1ccc(N2CCN(CCN3CCOCC3)C(C)C2)cc1 (centres undefined)', 'Fulfilled'),
  ('Cc1cc(=O)[nH]c(NCCNC(=O)C(c2ccc(F)cc2)N(C)C)n1 (centres undefined)', 'Fulfilled'),
  ('Cc1cc(CNC(=O)NC(C)c2ccncc2)no1 (centres undefined)', 'Not fulfilled'),
  ('CN(C)CCOCC1CN(C(=O)[C@H]2CCCO2)Cc2ccnn2C1 (some centres undefined)', 'Not fulfilled'),
  ('Cn1cc(CNC2CCCN(Cc3noc(C4CC4)n3)C2)cn1 (centres undefined)', 'Fulfilled'),
  ('O=C(c1n[nH]c2ccccc12)N1CCCC1c1noc(C2CC2)n1 (centres undefined)', 'Fulfilled'),
  ('CC(C)CCN1CC2(CCCN(C(=O)c3cscn3)C2)CCC1=O (centres undefined)', 'Fulfilled'),
  ('Cc1cc(NC(=O)NCc2ccccn2)n(C)n1', 'Fulfilled'),
  ('CC(C)c1nccn1C1CCCN(C(=O)c2cccc3c2OCO3)C1 (centres undefined)', 'Fulfilled'),
  ('CCCNC(=O)c1c(-n2cnnn2)sc2c1CCC2', 'Not fulfilled'),
  ('CCNC(=O)N1CCCCC1CCO (centres undefined)', 'Not fulfilled'),
  ('O=C(c1cccnc1)N1C[C@@H]2CC[C@H](C1)N(Cc1cccc(Cl)c1F)C2', 'Fulfilled'),
  ('CCN1CC(C(=O)N(C)Cc2ccon2)CC1=O (centres undefined)', 'Not fulfilled'),
  ('O=c1nc(SCc2cccnc2)c2c(n1CCO)CCC2', 'Fulfilled'),
  ('CC(C)Cc1noc(CN2CCOC(Cn3cncn3)C2)n1 (centres undefined)', 'Fulfilled'),
  ('Cn1cnnc1C1CCCN(C(=O)c2n[nH]c3ccccc23)C1 (centres undefined)', 'Fulfilled'),
  ('CC(C)N(C)Cc1cn2c(n1)CN(C(=O)Cc1ccsc1)CC2', 'Not fulfilled'),
  ('COCC1c2c(cnn2C)CCN1Cc1ccoc1 (centres undefined)', 'Not fulfilled'),
  ('CC(C)OCc1ccc(CNC(=O)CC(F)(F)F)cc1', 'Fulfilled'),
  ('Cc1cc(=O)[nH]c(CCNC(=O)C(c2ccc(F)cc2)N(C)C)n1 (centres undefined)', 'Fulfilled'),
  ('CN(Cc1ccsc1)C(=O)c1cccc(F)c1', 'Fulfilled'),
  ('COCC1CC2(CCN(C(=O)c3occc3C)CC2)CO1 (centres undefined)', 'Not fulfilled'),
  ('c1cnn(CC2CN(c3ncnc4sccc34)CCO2)c1 (centres undefined)', 'Fulfilled'),
  ('COCCN(C)C(=O)c1ccc(OC)cc1O', 'Not fulfilled'),
  ('COc1ccc(S(=O)(=O)N2CCC(S(C)(=O)=O)CC2)cc1C', 'Fulfilled'),
  ('Cc1cc(C2CCCN2C(=O)NCc2cccc(F)c2)on1 (centres undefined)', 'Fulfilled'),
  ('CCCc1noc(CN(C)C(=O)C2COc3ccccc3C2)n1 (centres undefined)', 'Fulfilled'),
  ('Cc1nn(C)c(Cl)c1C1CCCN1C(=O)c1nccnc1N (centres undefined)', 'Fulfilled'),
  ('NC(=O)c1ccc(N2CCCCC2)c(NC(=O)c2cncc(Br)c2)c1', 'Fulfilled'),
  ('Cc1nnc(N2CC[C@H]3C[C@@H](C(=O)NC4CCCC4)O[C@H]3C2)s1', 'Not fulfilled'),
  ('COCCNc1nc2c(c(NCc3ccncc3)n1)CCNCC2', 'Not fulfilled'),
  ('Cc1ccc(S(=O)(=O)NCCNC(=O)c2ccoc2)cc1F', 'Fulfilled'),
  ('O=C(COCc1nc(-c2ccncc2)no1)NC1CCCCC1', 'Fulfilled'),
  ('Nc1nccc(N2CCCC(CO)(CCOc3ccccc3)C2)n1 (centres undefined)', 'Fulfilled'),
  ('O=C1CCC(C(=O)NCc2nncn2-c2ccccc2)CN1 (centres undefined)', 'Fulfilled'),
  ('O=C(NCCC1=CCCCC1)NCc1nnc2n1CCC2', 'Fulfilled'),
  ('CCOCC1CN(C(=O)c2cccn2C)Cc2cnn(CC3CC3)c21 (centres undefined)', 'Fulfilled'),
  ('Cc1ccc(CNCc2nnc3n2CCCC3C(F)(F)F)o1 (centres undefined)', 'Not fulfilled'),
  ('CCNC(c1cccnc1)c1cc(C)cc(C)c1 (centres undefined)', 'Not fulfilled'),
  ('CSc1ccc(C(CNC(=O)C2CC2)N2CCc3sccc3C2)cc1 (centres undefined)', 'Fulfilled');

---

# Organism: Homo sapiens
# assay-notes: To identify inhibition of the IFN signalling (Jak-Stat) pathway via expression of an eGFP reporter gene under the control of an IFN-stimulated response element (ISRE) containing MxA promoter.
# Assay type: functional
# Set-up: scale not given: direction of the effect not stated beside the values
# condition-notes: 30 µM
# cutoff 10% applies to Percent Effect; >= gives t, < gives f

INSERT INTO measurements (compound, class_label) VALUES
  ('Cc1nc(C2CCCN(C(=O)c3cnn(C(C)(C)C)c3)C2)no1 (stereo not given)', 'f'),
  ('OC1(CN2CCCC2)CCCN(Cc2ccc(F)cc2Cl)C1 (stereo not given)', 'f'),
  ('Cc1cc(-c2cnc(NCc3cccnc3)nc2C(C)(C)C)on1', 't'),
  ('CC(C(N)=O)S(=O)(=O)Cc1cc(Cl)c2c(c1)OCO2 (stereo not given)', 'f'),
  ('CC(C)(C)OC(=O)N1CCN(C(=O)c2sccc2C2CC2)CC1', 'f'),
  ('CNC(=O)C1CCN(C(=O)CCn2cccn2)CC1', 't'),
  ('O=C(c1cncc(Br)c1)N1CCC(O)(Cn2ccc3ccncc32)CC1', 'f'),
  ('CN(C)CC(=O)N1CCC2(CC1)CN(c1ccsc1)C(=O)CO2', 't'),
  ('O=C(c1cccnc1)N1CCCC(c2cc(C(F)F)n3ncnc3n2)C1 (stereo not given)', 'f'),
  ('CCOCC1CN(C(=O)CS(C)(=O)=O)Cc2cnn(C)c21 (stereo not given)', 'f'),
  ('COc1ccccc1C1CNC(=O)c2nc(-c3ncc[nH]3)[nH]c2C1 (stereo not given)', 't'),
  ('Cc1ccc(NC(=O)N(C)Cc2cnn(C)c2)cc1OCC(F)F', 't'),
  ('Cc1ccsc1CNC(=O)NC1CCCc2c1cnn2CCO (stereo not given)', 'f'),
  ('O=C(C1CC1)N1CCCC1C1CCN(Cc2ccccc2)CC1 (stereo not given)', 'f'),
  ('O=C(c1cc(Cl)c2c(c1)OCO2)N1CCN(c2nccs2)CC1', 'f'),
  ('Cc1nn(C)c(C)c1CNC1CCOc2ccccc21 (stereo not given)', 't'),
  ('N#Cc1ccccc1CN1CCCCC1Cn1cncn1 (stereo not given)', 't'),
  ('CCOCCCNC(=O)c1cn(CC)nc1C', 't'),
  ('Cc1cc(C)n(C2CN(CC(O)c3ccc4c(c3)OCO4)C2)n1 (stereo not given)', 't'),
  ('c1cnn(CC2CCCN2c2ncnc3sccc23)c1 (stereo not given)', 't'),
  ('Cc1cnc(N2CCC3(CCCN(c4ccc(C)nn4)C3)C2)nc1 (stereo not given)', 't'),
  ('Cc1nc(CN2C[C@@H]3CN(C(=O)C4CC4)C[C@@H]3C2=O)cs1', 't'),
  ('Cc1occc1C(=O)N1CCc2ncnc(-c3cnn(C)c3)c2CC1', 'f'),
  ('O=C(c1ccco1)N1CCCC1C1CCN(Cc2ccccc2)CC1 (stereo not given)', 'f'),
  ('Cc1nccn1CC1CCCN1S(=O)(=O)Cc1ccccc1 (stereo not given)', 'f');

---

# target-desc: Proteasome subunit beta (Trypanosoma cruzi) (UniProt O96673)
# Sequence (whole entry): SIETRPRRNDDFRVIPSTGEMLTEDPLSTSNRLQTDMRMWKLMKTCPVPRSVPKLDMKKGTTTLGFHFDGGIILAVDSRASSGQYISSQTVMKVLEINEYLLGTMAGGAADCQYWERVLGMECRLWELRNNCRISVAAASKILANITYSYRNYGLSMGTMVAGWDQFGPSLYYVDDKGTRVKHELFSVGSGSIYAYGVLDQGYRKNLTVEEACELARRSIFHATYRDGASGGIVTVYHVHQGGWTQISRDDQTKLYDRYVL
# assay-notes: Trypanosoma cruzi proteasome chymotrypsin-like activity (TcProtChymo) assay. Also: in the data most compounds retested in dose-response had high values.
# Type: functional
# Design: scale not given: direction of the effect not stated beside the values
# condition-notes: 9.37 µM
Use 8% as the dividing line for Percent Effect, with the line itself on the yes (1) side and lower values as no (0).

INSERT INTO assay_data (compound, class_label) VALUES
  ('COc1c(CNC2CCCc3ccccc32)c(C)nn1C (stereo unspecified)', 'yes (1)'),
  ('Cn1nccc1C(=O)N1CCOC(Cc2cccc(C(F)(F)F)c2)C1 (stereo unspecified)', 'no (0)'),
  ('O=C(c1cc(=O)[nH]c(=O)[nH]1)N1CCCCC1c1nc2cc(F)ccc2[nH]1 (stereo unspecified)', 'no (0)'),
  ('CC(C)(C)c1nc(CN2CCC(c3nc4cc(Cl)ccc4o3)CC2)no1', 'no (0)'),
  ('Cn1cc(C(=O)NC[C@@H]2OC[C@H]3CN(Cc4ccco4)CC[C@H]32)cn1', 'yes (1)');
